# measurement_description: xn = mol fraction of the nth substance listed
# run_conditions: 303.15 K; 101.33 kPa; x2 = 0.85
endpoint_name: viscosity (mPa·s)
The reply should be a number in mPa·s, with the unit left off.

compound="C[N+](=O)[O-] + CCCO" observed_measurement=1.218

Input line: Entry under review: C[N+](=O)[O-] + CC(C)(C)O . Reported viscosity?
Output line: 1.72

* * *

# measurement_description: xn = mol fraction of the nth substance listed
# run_conditions: 313.15 K; 101.33 kPa; x2 = 0.7
endpoint_name: viscosity (mPa·s)
Report the value in mPa·s with no unit label.

Example cases with answers are listed next.
molecule="C[N+](=O)[O-] + CO" endpoint_name=viscosity observed_measurement=0.406
molecule="C[N+](=O)[O-] + CC(C)O" endpoint_name=viscosity observed_measurement=0.71
molecule="C[N+](=O)[O-] + CCC(C)O" endpoint_name=viscosity observed_measurement=0.857
molecule="C[N+](=O)[O-] + CCO" endpoint_name=viscosity observed_measurement=0.569
molecule="C[N+](=O)[O-] + CCCO" endpoint_name=viscosity observed_measurement=0.789

Input line: Need viscosity of C[N+](=O)[O-] + CC(C)(C)O , thanks.
Output line: 0.885

* * *

# measurement_description: xn = mol fraction of the nth substance listed
# run_conditions: 293.15 K; 101.33 kPa; x2 = 0.8
endpoint_name: viscosity (mPa·s)
Write it as a number; the unit mPa·s goes unstated.

Input line: Value lookup for viscosity; key = C[N+](=O)[O-] + CC(C)O
Output line: 1.326

Input line: Then this compound: C[N+](=O)[O-] + CCCO
Output line: 1.375

Input line: Would you mind doing C[N+](=O)[O-] + CCC(C)O as well?
Output line: 1.742

Input line: Lookup C[N+](=O)[O-] + CO
Output line: 0.538

Input line: Next up: C[N+](=O)[O-] + CCO
Output line: 0.872

* * *

# measurement_description: xn = mol fraction of the nth substance listed
# run_conditions: 303.15 K; 101.33 kPa; x2 = 0.8
endpoint_name: viscosity (mPa·s)
Numbers only here, please. The scale is mPa·s.

Reference set, count: 5
compound="C[N+](=O)[O-] + CCO" observed_measurement=0.732
compound="C[N+](=O)[O-] + CC(C)(C)O" observed_measurement=1.491
compound="C[N+](=O)[O-] + CCC(C)O" observed_measurement=1.316
compound="C[N+](=O)[O-] + CC(C)O" observed_measurement=1.044
compound="C[N+](=O)[O-] + CO" observed_measurement=0.468

Input line: Sample C[N+](=O)[O-] + CCCO — what was its viscosity?
Output line: 1.112

* * *

# run_conditions: 293.15 K; 101 kPa
Binary call on viscosity with cut-off 1 mPa·s: strictly below means 1, and equality or higher means -1.

compound=Cc1cccc(O)c1 class_label=-1
compound=OCC1CC1 class_label=-1
compound=CCCCOCCOCCOCCO class_label=-1
compound="CCC1(C)OC1C#N (stereo unspecified)" class_label=-1
compound=C[N+](=O)[O-] class_label=1

With those in mind, consider the next compound.
Input line: Find out if reported viscosity for N is less than 1 mPa·s
Output line: 1

* * *

List of viscosity values.
# run_conditions: 308.15 K; 101 kPa
Give the quantity in mPa·s, number only.

A selection of reference data follows.
compound=CCCCCCCCCCCC[N+](C)(C)Cc1ccccc1.O=S(=O)([N-]S(=O)(=O)C(F)(F)F)C(F)(F)F observed_measurement=682.7
compound="CC1CCC(=O)O1 (centres undefined)" observed_measurement=1.586

Input line: Would you kindly share the measured viscosity for CCCCCCn1cc[n+](C)c1.F[P-](F)(F)(F)(F)F ?
Output line: 364.4

Input line: Also OCC1CC1 ?
Output line: 2.629

* * *

# measurement_description: xn = mol fraction of the nth substance listed
# run_conditions: 303.15 K; 101.33 kPa; x2 = 0.7
endpoint_name: viscosity (mPa·s)
Only the number, expressed in mPa·s, is required.

Input line: Any idea what its viscosity is? The compound is C[N+](=O)[O-] + CO
Output line: 0.461

Input line: // query: C[N+](=O)[O-] + CCCO
Output line: 0.95

Input line: Same lookup for C[N+](=O)[O-] + CC(C)(C)O , please.
Output line: 1.174

Input line: And the next one, C[N+](=O)[O-] + CCO ?
Output line: 0.665

Input line: // next record C[N+](=O)[O-] + CCC(C)O
Output line: 1.079

Input line: Can you check C[N+](=O)[O-] + CC(C)O next?
Output line: 0.867

* * *

# measurement_description: xn = mol fraction of the nth substance listed
# run_conditions: 303.15 K; 101.33 kPa; x2 = 0.4501
± gives the uncertainty stated by the source.
Measured viscosity of individual entries

compound="C[N+](=O)[O-] + CCO" observed_measurement="0.561 ± 0.005 mPa·s"
compound="C[N+](=O)[O-] + CO" observed_measurement="0.464 ± 0.005 mPa·s"
compound="C[N+](=O)[O-] + CC(C)(C)O" observed_measurement="0.761 ± 0.031 mPa·s"

// switching to the query compound
Input line: Requested read-out: viscosity. Entry: C[N+](=O)[O-] + CC(C)O
Output line: 0.647 ± 0.006 mPa·s

* * *

# measurement_description: xn = mol fraction of the nth substance listed
# run_conditions: 293.15 K; 101.33 kPa; x2 = 0.5
± gives the uncertainty stated by the source.
Here, each record is paired with measured viscosity data.
Provide the measurement as a number trailed by its unit.

molecule="C[N+](=O)[O-] + CCCO" observed_measurement="0.892 ± 0.008 mPa·s"
molecule="C[N+](=O)[O-] + CO" observed_measurement="0.525 ± 0.005 mPa·s"
molecule="C[N+](=O)[O-] + CCC(C)O" observed_measurement="0.995 ± 0.009 mPa·s"

Let's switch to this molecule now.
Input line: Dear colleague, I am looking for the recorded viscosity of the following molecule: C[N+](=O)[O-] + CC(C)O
Output line: 0.817 ± 0.008 mPa·s

* * *

# viscosity per entry
# measurement_description: xn = mol fraction of the nth substance listed
# run_conditions: 303.15 K; 101.33 kPa; x2 = 0.55
Numeric answer only, unit mPa·s assumed.

Input line: Suppose we examine the molecule C[N+](=O)[O-] + CO ; what viscosity value has been reported?
Output line: 0.459

Input line: How about C[N+](=O)[O-] + CC(C)O ?
Output line: 0.716

Input line: Next molecule: C[N+](=O)[O-] + CCO
Output line: 0.594

Input line: Now consider C[N+](=O)[O-] + CC(C)(C)O .
Output line: 0.886

* * *

# measurement_description: xn = mol fraction of the nth substance listed
# run_conditions: 313.15 K; 101.33 kPa; x2 = 0.95
± gives the uncertainty stated by the source.
endpoint_name: viscosity
Numeric answer plus unit only.

Below: 5 compounds and their reported viscosity.
compound="C[N+](=O)[O-] + CCCO" endpoint_name=viscosity observed_measurement="1.214 ± 0.011 mPa·s"
compound="C[N+](=O)[O-] + CCO" endpoint_name=viscosity observed_measurement="0.759 ± 0.007 mPa·s"
compound="C[N+](=O)[O-] + CO" endpoint_name=viscosity observed_measurement="0.432 ± 0.004 mPa·s"
compound="C[N+](=O)[O-] + CC(C)O" endpoint_name=viscosity observed_measurement="1.159 ± 0.011 mPa·s"
compound="C[N+](=O)[O-] + CC(C)(C)O" endpoint_name=viscosity observed_measurement="1.697 ± 0.069 mPa·s"

Now look at this one.
Input line: Need viscosity of C[N+](=O)[O-] + CCC(C)O , thanks.
Output line: 1.477 ± 0.013 mPa·s

* * *

# run_conditions: 318.15 K; 101 kPa
endpoint_name: viscosity (mPa·s)
Answer in mPa·s, number only, no unit symbol.

compound="CCCCOC(=O)C(C)O (centres undefined)" observed_measurement=1.935
compound=CCCCCCCCCCCC[N+](C)(C)Cc1ccccc1.O=S(=O)([N-]S(=O)(=O)C(F)(F)F)C(F)(F)F observed_measurement=351.1
compound=CCCCCCn1cc[n+](C)c1.F[P-](F)(F)(F)(F)F observed_measurement=208.5

Input line: // lookup viscosity for CC1CCC(=O)O1 (centres undefined)
Output line: 1.364

* * *

# measurement_description: xn = mol fraction of the nth substance listed
# run_conditions: 313.15 K; 101.33 kPa; x2 = 0.5
± gives the uncertainty stated by the source.
endpoint_name: viscosity
Number first, unit second.

molecule="C[N+](=O)[O-] + CCCO" observed_measurement="0.629 ± 0.006 mPa·s"
molecule="C[N+](=O)[O-] + CO" observed_measurement="0.408 ± 0.004 mPa·s"
molecule="C[N+](=O)[O-] + CC(C)O" observed_measurement="0.574 ± 0.005 mPa·s"

Input line: // query viscosity value for entry C[N+](=O)[O-] + CCC(C)O
Output line: 0.659 ± 0.006 mPa·s
